Reference source: ChEMBL document CHEMBL4334465

# Test system: [Candida] auris
# Protocol Text: Antifungal activity against Candida auris assessed as FICI in presence of fluconazole
# Type: functional, Candidozyma auris
Assay Endpoint: fractional inhibitory concentration index (FICI)

O=C(N/N=C/c1cc(Cl)cc(Cl)c1O)c1ccc(Br)c(Br)c1 | 0.5
O=C(N/N=C/c1ccc(Br)cc1O)c1ccc(Br)cc1Br | 2
O=C(N/N=C/c1cc(Br)cc(Br)c1O)c1ccc(Br)c(Br)c1 | 1.001
O=C(N/N=C/c1cc(Br)ccc1O)c1ccc(Br)cc1Br | 2
O=C(N/N=C/c1ccc(Br)cc1O)c1cc(Br)cc(Br)c1O | 0.531

---

# Protocol Text: Selectivity index, ratio of LD50 for human HepG2 cells to MIC80 for Cryptococcus neoformans H99
# Format: toxicity
# Applied Conditions: read-out: Selectivity Index
Label rule, in plain words: selectivity ratio of 60 and up is t, under 60 is f.

O=C(N/N=C/c1c(O)ccc2ccccc12)c1cc(Br)cc(Br)c1 | f
O=C(N/N=C/c1cc(Br)ccc1O)c1ccc(OC(F)(F)F)cc1F | f
Cc1ccc(O)c(/C=N/NC(=O)c2cc(Br)ccc2O)c1 | t
O=C(N/N=C/c1cc(Br)cc(Br)c1O)c1ccc(OC(F)(F)F)cc1F | t
CN(C)c1ccc(C(=O)N/N=C/c2ccc(Br)cc2O)cc1 | t
O=C(N/N=C/c1ccc(Br)cc1O)c1ccc(OC(F)F)cc1 | t
O=C(N/N=C/c1cc(Br)cc(Br)c1O)c1ccc(OC(F)(F)F)cc1 | f
O=C(N/N=C/c1cc(Br)ccc1O)c1ccccc1C(F)(F)F | f
O=C(N/N=C/c1cc(Cl)cc(Cl)c1O)c1ccc(Br)cc1Br | t
O=C(N/N=C/c1ccc(Br)cc1O)c1cccc(C(F)(F)F)c1 | f
Cc1ccc(O)c(/C=N/NC(=O)c2cc(Br)cc(Br)c2O)c1 | f
Cc1ccc(O)c(/C=N/NC(=O)c2cc(Br)ccc2Br)c1 | f
O=C(N/N=C/c1ccc(Br)cc1O)c1cc(Br)cc(Br)c1O | t
O=C(N/N=C/c1cc(Br)ccc1O)c1ccc(OC(F)(F)F)cc1 | t
CN(C)c1ccc(C(=O)N/N=C/c2cc(Br)cc(Br)c2O)cc1 | f
O=C(N/N=C/c1ccc(Br)cc1O)c1ccc(Br)cc1Br | t
N#Cc1ccc(C(=O)N/N=C/c2cc(Br)cc(Br)c2O)cc1 | t
Cc1ccc(O)c(/C=N/NC(=O)c2ccc(Br)cc2Br)c1 | f
O=C(N/N=C/c1cc(Cl)ccc1O)c1ccc(Br)cc1Br | t
O=C(N/N=C/c1cc(Cl)ccc1O)c1cc(Br)cc(Br)c1 | t
O=C(N/N=C/c1cc(F)ccc1O)c1ccc(Br)cc1 | f
O=C(N/N=C/c1cccc(Br)c1O)c1cccc(F)c1 | f
O=C(N/N=C/c1cc(Br)cc(Br)c1O)c1ccc(Br)c(Br)c1 | t
O=C(N/N=C/c1cc(Cl)ccc1O)c1cccc(F)c1F | f
O=C(N/N=C/c1cccc(Br)c1O)c1cccc(C(F)(F)F)c1 | f
O=C(N/N=C/c1ccc(Br)cc1O)c1cc(Br)cc(Br)c1 | f
O=C(N/N=C/c1cc(Cl)cc(Cl)c1O)c1ccc(Br)c(Br)c1 | t
O=C(N/N=C/c1cc(Br)cc(Br)c1O)c1ccc(OC(F)F)cc1 | t
Cc1ccc(O)c(/C=N/NC(=O)c2ccc(Br)c(Br)c2)c1 | t
O=C(N/N=C/c1cc(Br)ccc1O)c1cc(Br)cc(Br)c1 | t
O=C(N/N=C/c1cc(Cl)ccc1O)c1ccc(Br)c(Br)c1 | t
O=C(N/N=C/c1cc(Cl)cc(Cl)c1O)c1cc(Br)ccc1Br | t
O=C(N/N=C/c1c(O)ccc2ccccc12)c1cc(Br)ccc1Br | t
O=C(N/N=C/c1ccc(Br)cc1O)c1ccc(Br)cc1 | t
O=C(N/N=C/c1cc(Br)cc(Br)c1O)c1ccc(CF)cc1 | f
O=C(N/N=C/c1cc(OC(F)(F)F)ccc1O)c1ccc(Br)cc1 | t
O=C(N/N=C/c1cc(Br)cc(Br)c1O)c1cccc(OC(F)F)c1 | t
O=C(N/N=C/c1cc(Br)cc(Br)c1O)c1cnc2ccccc2c1 | t
O=C(N/N=C/c1cc(Br)ccc1O)c1ccc(Br)c(Br)c1 | f
O=C(N/N=C/c1cc(Br)ccc1O)c1ccc(Br)cc1Br | t
O=C(N/N=C/c1cc(OC(F)(F)F)ccc1O)c1ccc(Br)cc1Br | t
O=C(N/N=C/c1cc(Br)ccc1O)c1cccc(OC(F)F)c1 | t
O=C(N/N=C/c1cc(F)ccc1O)c1ccc(Br)cc1Br | f
O=C(N/N=C/c1cc(Cl)cc(Cl)c1O)c1cc(Br)cc(Br)c1 | t
O=C(N/N=C/c1cc(Br)ccc1O)c1cc(Br)ccc1Br | t
O=C(N/N=C/c1c(O)ccc2ccccc12)c1ccc(Br)cc1Br | t
